system: OVCAR-3 ovarian; test: NCI tumour cell line growth inhibition, 48 h; in the data active = GI50 below about 0.43 µM; inactive = the rest
Respond only with the outcome that fits, drawn from active, inactive

Example cases with answers are listed next.
Task: Identify the outcome logged in this assay for the compound shown: `COc1ccc(-c2c(-c3cc(OC)c(OC)c(OC)c3)noc2N)cc1`
Result: active

Task: Item: `O=C(NO)c1ccc(Cn2c(=O)n(-c3ccccc3F)c(=O)c3ccccc32)cc1`
Result: inactive

Task: Another compound to check: `N#CC1=C(N)NC(=S)NC12Nc1ccccc1N2`
Result: inactive

Task: Subsequent entry: OCC1OC(n2cnc3c(Cl)nc(Cl)cc32)C(O)C1O (stereo not given)
Result: inactive

Next compound, please.
Task: Hi, sorry to bother you, what did the test record for `C=C(CN1CCN(c2cccc(C(F)(F)F)n2)CC1)c1ccc(C(=S)Nc2ccccc2N)cc1` ?
Result: inactive
